Provenance of the data: patent US20240239894A1

# SYSTEM_TESTED: T1, Murine B7-H4 ECD-Flag-His10 (monomeric) (mouse, UniProt Q7TSP5 25-257)
# T1 construct: extracellular domain; also called FlagHis10 murine B7-H4
# T1 sequence (looked up): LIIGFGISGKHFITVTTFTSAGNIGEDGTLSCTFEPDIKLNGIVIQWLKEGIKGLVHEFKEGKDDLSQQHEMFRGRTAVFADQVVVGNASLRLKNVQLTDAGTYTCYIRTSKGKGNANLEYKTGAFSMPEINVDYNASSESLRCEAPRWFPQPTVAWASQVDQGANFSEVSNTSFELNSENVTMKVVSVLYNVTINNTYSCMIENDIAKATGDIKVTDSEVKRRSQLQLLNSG
# ASSAY: Octet BLI, hIgG1-TM on Protein G (n = 4-7)
# kon values compiled below
REPORTED_ENDPOINT: kon (M⁻¹ s⁻¹)

ZY0EP0-C07 human IgG1-TM (antibody, V domains shown, also called ZY0EPO-C07) VH: QVQLVESGGVLVKPGGSLRLSCAASGFTLSDYYMSWIRQAPGMGLEWVSYISSSGSTIYYTDSVKGRFTISRDSAKNSLYLQMNSLRAEDTAVYYCARDGVGFDYWGQGTLVTVSS VL: EIVLTQSPGTLSLFPGERATLSCRASQSVSSSYLAWYQQKPGQSPRLLIYAASSRATGIPDRFSGSGSGTDFTLTISRLEPEDFAVYYCQQYGSSPLYTFGQGTKLEIK = 43000
ZY0EPQ-E02 human IgG1-TM (antibody, V domains shown) VH: QVQLQQWGAGLLKPSETLSLTCAVYGGSFSGYYWNWIRQPPGKGLEWIGEINHSGSTNYNPSLKSRVTILVDTSKNQFSLKLSSVTAADTAVYYCARNLYNWNLDSWGQGTLVTVSS VL: DIQMTQSPSSLSASVGDRVTITCRASQGIRNDLGWYQQKPGRAPKRLIYVASSLQSGVPSRFSGSGSGTEFTLTISSLQPEDFATYYCLQHNSYPRTFGQGTKVEIK = 76700
ZY0EOB-F05 human IgG1-TM (antibody, V domains shown) VH: QVQLQESGPGLVKPSQTLSLTCTVSDGSISSGGYYWSWIRQHPGKGLEWIGNIYYSGSTYYNPSLKSRVTISVDTSKNQFSLKLNSVTAADTAVYYCATEKALATVTPSGYENYYTVDVWGQGTTVTVSS VL: DIQLTQSPSFLSASVGDRVTITCWASQGISSYLAWYQQKPGKAPKLLIYAASTLQSGVPSRFSGSGSGTEFTLTISSLQPEDFATYYCQHLNSYPLTFGGGTKVEIK = 18700
ZY0EO5-E07 human IgG1-TM (antibody, V domains shown, also called ZY0E05-E07; E05-E07) VH: QVQLQESGPGLVKPSQTLSLTCTVSGGSISSGGYYWSWIRQHPGKGLEWIGNIYYSGSTYYNPSLKSRVTISVDTSKNQFSLKLSSVTAADTAVYYCAREKALASVIPSGYENYYVVDVWGQGTTVTVSS VL: DIQLTQSPSFLSASVGGRVTITCWASQGIAGYLAWYQQKPGKAPKLLIYAASTLQSGVPSRFSGSGSGTEFTLTISSLQPEDFATYYCQHLNSYPLTFGGGTKVEIK = 12100
ZY0EQD-E02 human IgG1-TM (antibody, V domains shown) VH: QVQLQQWGAGLLKPSETLSLTCAVYGGSFSGYYWNWIRQPPGKGLEWIGEINHSGSTSYNPSLKSRVTISVDTSKNQFSLKLSSVTAADTAVYYCARVLYNWNVDSWGQGTLVTVSS VL: DIQMTQSPSSLSASVGDRVTITCRASQDIRNDVGWYQQKPGKAPKRLIYAASRLQSGVPSRFSGSGSGTEFTLTISSLQPEDFATYYCLQHNSYPRTFGQGTKVEIK = 203000
